tested on: CCRF-CEM leukemia; experiment: NCI tumour cell line growth inhibition, 48 h
measurement-type: TGI

Problem: Would you kindly share the measured TGI for Cc1cc(S(=O)(=O)NC2=NCc3c(F)cccc3N2)c(S)cc1Cl ?
Solution: > 100 µM

Problem: Would you kindly share the measured TGI for FC(F)(Sc1ncccn1)c1nc2ccccc2o1 ?
Solution: > 100 µM

Problem: Would you kindly share the measured TGI for Cc1cc(C)c(C2=NO[C@@H]3[C@H]2C(=O)C=C2N(Cc4ccccc4)CCO[C@@]23O)c(C)c1 ?
Solution: > 100 µM

Problem: Would you kindly share the measured TGI for CCOC(=O)NCC(=O)NCC(=O)NCC(N)=O ?
Solution: > 100 µM

Problem: Would you kindly share the measured TGI for CNc1ccc(CSc2ccc(C)cc2)cc1 ?
Solution: 12.2 µM

Problem: Would you kindly share the measured TGI for CN(C)c1ccc(/C=C2\N=C(c3ccccc3)N(c3nc4ccc(Sc5ccccc5)cc4[nH]3)C2=O)cc1 ?
Solution: > 100 µM

Problem: Would you kindly share the measured TGI for COc1cc(C(=O)Nc2ccc(-c3nc4ccccc4[nH]3)cc2)cc(OC)c1OC ?
Solution: 39.3 µM

Problem: Would you kindly share the measured TGI for Cc1cc(=O)[nH]c2c1C(=O)c1c(C)cc(=O)n(C)c1C2=O ?
Solution: > 10 µM

Problem: Would you kindly share the measured TGI for CC(C)(C)[C@H]1NC(=O)CN1C(=O)OCc1ccccc1 ?
Solution: > 100 µM

Problem: Would you kindly share the measured TGI for COc1ccc(S(=O)(=O)NNS(C)(=O)=O)cc1OC ?
Solution: > 100 µM

Problem: Would you kindly share the measured TGI for N#CC(C#N)=C/C=C/c1ccccc1[N+](=O)[O-] ?
Solution: > 10 µM

----------
Task for the reader: assign each of the following compounds its reported TGI.
system: OVCAR-5 ovarian; test: NCI tumour cell line growth inhibition, 48 h

Problem: Would you kindly share the measured TGI for COc1ccc(Nc2nc(N)c(C(=O)c3ccco3)s2)cc1 ?
Solution: > 100 µM

Problem: Would you kindly share the measured TGI for Cc1cc(C)c(C2=NO[C@@H]3[C@H]2C(=O)C=C2N(Cc4ccccc4)CCO[C@@]23O)c(C)c1 ?
Solution: > 100 µM

Problem: Would you kindly share the measured TGI for COc1cc(-c2cc(OC)c(OC)c3ccc(Br)cc23)c2cc(Br)ccc2c1OC ?
Solution: 39.2 µM

Problem: Would you kindly share the measured TGI for O=C(CC/C(CC(=O)c1ccc(Cl)cc1)=N\O)Nc1cccc(Cl)c1 ?
Solution: > 100 µM

Problem: Would you kindly share the measured TGI for COc1cc2ccc(C(C)NCC#N)cc2cc1OC (configuration not stated) ?
Solution: > 100 µM

Problem: Would you kindly share the measured TGI for Cc1cc(C)n(C(=CC(=O)C(Cl)Cl)n2nc(C)cc2C)n1 ?
Solution: 14.5 µM

Problem: Would you kindly share the measured TGI for Nc1ccc2c3c1cccc3c(=O)n1c3ccc(Cc4ccc5c(c4)nc4c6ccc(N)c7cccc(c(=O)n54)c76)cc3nc21 ?
Solution: > 100 µM

----------
test system: OVCAR-3 ovarian; test: NCI tumour cell line growth inhibition, 48 h
Task for the reader: assign each of the following molecules its reported GI50.

Problem: Fill in the recorded GI50 for this molecule, with OVCAR-3 ovarian as test system: CCCCCCC1CCCCN1C(c1ccccc1)C(O)c1ccccc1 (stereo not given)
Solution: 8.49 µM

Problem: Fill in the recorded GI50 for this molecule, with OVCAR-3 ovarian as test system: Nc1c([N+](=O)[O-])ncn1C1OC(CO)C(O)C1O (stereo not given)
Solution: > 100 µM

Problem: Fill in the recorded GI50 for this molecule, with OVCAR-3 ovarian as test system: O=[N+]([O-])/C(=C/C=C/c1ccccc1)c1ccccc1
Solution: 1.85 µM

Problem: Fill in the recorded GI50 for this molecule, with OVCAR-3 ovarian as test system: COc1cc(/C=C/C(=O)/C=C/c2ccc(-n3ccnc3)cc2)ccc1O
Solution: 3.14 µM

Problem: Fill in the recorded GI50 for this molecule, with OVCAR-3 ovarian as test system: COC(=O)c1sc(=S)c2sc(C(=O)OC)c(C(=O)OC)c2c1C(=O)OC
Solution: 35.5 µM

Problem: Fill in the recorded GI50 for this molecule, with OVCAR-3 ovarian as test system: CN1CCC(C(=O)Nc2n[nH]c3nnc(-c4ccccc4)cc23)CC1
Solution: 10.1 µM

Problem: Fill in the recorded GI50 for this molecule, with OVCAR-3 ovarian as test system: O=C([CH-]C(=O)c1ccccc1)c1ccccc1.[CH2-]C.[CH2-]C.[Tl+3]
Solution: 28 µM

Problem: Fill in the recorded GI50 for this molecule, with OVCAR-3 ovarian as test system: Cc1nc2sc(C(=O)Nc3cccc(Cl)c3)c(N)c2cc1C(O)c1ccccc1 (stereo not given)
Solution: 0.587 µM

Problem: Fill in the recorded GI50 for this molecule, with OVCAR-3 ovarian as test system: COc1cc(C(=O)/C=C/c2c(C)n([O-])c3ccc(Cl)cc3[n+]2=O)cc(OC)c1OC
Solution: 1.76 µM

Problem: Fill in the recorded GI50 for this molecule, with OVCAR-3 ovarian as test system: Cc1ncc([N+](=O)[O-])n1CCOc1ccc(C(=O)/C=C/c2ccc(C(F)(F)F)cc2)cc1
Solution: 2.37 µM

Problem: Fill in the recorded GI50 for this molecule, with OVCAR-3 ovarian as test system: COc1ccc(-c2nc3sccn3c2/C=C/C(=O)c2cc(OC)c(OC)c(OC)c2)cc1
Solution: 2.34 µM

Problem: Fill in the recorded GI50 for this molecule, with OVCAR-3 ovarian as test system: COc1ccc(C2CC(c3cccc(Nc4ccncc4)c3)=NN2c2ccccc2)cc1 (stereo not given)
Solution: 1.86 µM

Problem: Fill in the recorded GI50 for this molecule, with OVCAR-3 ovarian as test system: COc1ccc(-c2nn(-c3cccc(Cl)c3)cc2-c2c(C#N)c(=O)n3[nH]c(-c4ccc(C)o4)nc3c2C#N)cc1
Solution: 5.68 µM

Problem: Fill in the recorded GI50 for this molecule, with OVCAR-3 ovarian as test system: C#CCN(CCCOc1ccc(Cl)cc1Cl)CCCSC(=O)CCCCCN1/C(=C\C=C2/CCCC(/C=C/C3=[N+](CCCCCC(=O)[O-])c4ccccc4C3(C)C)=C2Cl)C(C)(C)c2ccccc21
Solution: 1.45 µM

Problem: Fill in the recorded GI50 for this molecule, with OVCAR-3 ovarian as test system: Oc1ccccc1/C=N/c1nc(-c2ccccc2)cs1
Solution: 30 µM

----------
system: MCF7 breast; test: NCI tumour cell line growth inhibition, 48 h
measurement-type: TGI (µM)
Field: numeric (µM). Do not append units.

Problem: Would you kindly share the measured TGI for OCCN1CCCN(CCCN2c3ccccc3Sc3ccc(C(F)(F)F)cc32)CC1 ?
Solution: 3.14

Problem: Would you kindly share the measured TGI for N=C(N)c1ccc(N=Nc2c(O)c(C(=O)Nc3ccccc3)cc3ccccc23)cc1 ?
Solution: 41.7

Problem: Would you kindly share the measured TGI for Cc1nc2sc(C(=O)Nc3cccc(Cl)c3)c(N)c2cc1C(O)c1ccccc1 (stereo not given) ?
Solution: 16.9

----------
Task for the reader: assign each of the following compounds its reported TGI.
system: OVCAR-8 ovarian; test: NCI tumour cell line growth inhibition, 48 h

Problem: Would you kindly share the measured TGI for c1ccc(CN2CCC(CNc3ncnc4ccccc34)C2)cc1 (stereo not given) ?
Solution: > 100 µM

Problem: Would you kindly share the measured TGI for CN1CCN(Cc2ccc(C(=S)Nc3ccccc3)s2)CC1 ?
Solution: > 100 µM

Problem: Would you kindly share the measured TGI for CC[P+](c1ccccc1)(N(C)C)N(C)C ?
Solution: > 100 µM

Problem: Would you kindly share the measured TGI for COc1ccc(Nc2nc(N)c(C(=O)c3ccco3)s2)cc1 ?
Solution: > 100 µM

Problem: Would you kindly share the measured TGI for Cc1ccc(-n2cc(/C(N)=N/O)c3ccccc3c2=O)cc1 ?
Solution: > 100 µM

Problem: Would you kindly share the measured TGI for COc1ccc2c(c1)CCC1C2CCC2(C)C(NC(=O)CCCCC3CCSS3)CCC12 (stereo not given) ?
Solution: > 100 µM

Problem: Would you kindly share the measured TGI for COc1cc([C@H]2c3cc4c(cc3[C@H](NCc3ccc(F)cc3)C3COC(=O)[C@H]32)OCO4)cc(OC)c1O (stereo not given in full) ?
Solution: 35.1 µM

Problem: Would you kindly share the measured TGI for CC(CSc1nc2c(c(=N)n1-c1ccccc1)c(=S)n(-c1ccccc1)c(=S)n2-c1ccccc1)CN(C)C (stereo not given) ?
Solution: 3 µM

Problem: Would you kindly share the measured TGI for Cc1cc(S(=O)(=O)NC2=NCc3c(F)cccc3N2)c(S)cc1Cl ?
Solution: > 100 µM

Problem: Would you kindly share the measured TGI for COc1cc(CNc2nc3c(NC(C)=O)cc(C(F)(F)F)cc3nc2-c2ccccc2)cc(OC)c1OC ?
Solution: > 100 µM
